- System: Rattus norvegicus
- Assay method text: Biodistribution in liver of immature female rat after 1 hr administration of 3 micro Ci (111 kBq) in the presence of (+E2)
- Type: ADME, organism-based
- Measurement context: in vivo
Readout label: ID/g (%)

get_value(item= C[C@@H]1Cc2c(ccc(O)c2F)[C@H]2CC[C@@]3(C)[C@@H](CC[C@@]3(O)/C=C/I)[C@H]12 , readout=ID/g) returns 5.84

get_value(item= CO[C@H]1C[C@@]2(C)[C@@H](CC[C@@]2(O)/C=C\I)[C@@H]2CCc3c(ccc(O)c3F)[C@H]21 , readout=ID/g) returns 2.77

get_value(item= C[C@]12CC[C@@H]3c4ccc(O)c(F)c4CC[C@H]3[C@@H]1CC[C@@]2(O)/C=C\I , readout=ID/g) returns 3.04

get_value(item= C[C@@H]1Cc2c(ccc(O)c2F)[C@H]2CC[C@@]3(C)[C@@H](CC[C@@]3(O)/C=C\I)[C@H]12 , readout=ID/g) returns 1.54

get_value(item= C[C@]12CC[C@@H]3c4ccc(O)c(F)c4CC[C@H]3[C@@H]1CC[C@@]2(O)/C=C/I , readout=ID/g) returns 3.06

(A) C[C@@H]1Cc2cc(O)c(F)cc2[C@H]2CC[C@@]3(C)[C@@H](CC[C@@]3(O)/C=C/I)[C@H]12
(B) C[C@]12CC[C@@H]3c4cc(F)c(O)cc4CC[C@H]3[C@@H]1CC[C@@]2(O)/C=C/I
Between the entries labeled A and B , whose measured ID/g is lower? Lab note: record the label of whichever item you select. A
